Value source: PubChem BioAssay AID1963425

Assignment: determine reported viability, T/C for the given compounds.
Tested on: 323965-272-R-J2-PDC complex spheroid growth, % test/control
Experiment: Anticancer human tumor 323965-272-R-J2-PDC patient-derived pancreatic carcinoma cell line growth inhibition [Asc]
Conditions: second compound 1 µM; first compound 0.316 µM; hits give low values
Numbers only, in %.

[
  {
    "compound": "C=CC(=O)N1CCN(c2nc(=O)n(-c3c(C)ccnc3C(C)C)c3nc(-c4c(O)cccc4F)c(F)cc23)C(C)C1 (stereo not drawn) + CNC(C)C(=O)NC1CN(S(=O)(=O)c2cccc(S(=O)(=O)N3CCC4CCC(C(=O)NC(c5ccccc5)c5ccccc5)N4C(=O)C(NC(=O)C(C)NC)C3)c2)CCC2CCC(C(=O)NC(c3ccccc3)c3ccccc3)N2C1=O",
    "viability, T/C, %": 57.9
  }
]

Take each entry in turn and give its viability, T/C.
1. C=CC(=O)N1CCN(c2nc(=O)n(-c3c(C)ccnc3C(C)C)c3nc(-c4c(O)cccc4F)c(F)cc23)C(C)C1 (stereo not drawn) + Cc1c(S(C)(=O)=O)c(-c2cc(F)cc(N3CCN(c4ccc(NS(=O)(=O)c5ccc(NC(CCN6CCC(C(=O)OCCCP(=O)(O)O)CC6)CSc6ccccc6)c(S(=O)(=O)C(F)(F)F)c5)cc4)CC3)c2)c(-c2ccc(Cl)cc2)n1C(C)C
2. C=C(F)C(=O)N1CCN(c2nc(OCC3CCCN3C)nc3c2CCN(c2cccc4cccc(Cl)c24)C3)CC1CC#N (stereo not drawn) + CNC(C)C(=O)NC1CN(S(=O)(=O)c2cccc(S(=O)(=O)N3CCC4CCC(C(=O)NC(c5ccccc5)c5ccccc5)N4C(=O)C(NC(=O)C(C)NC)C3)c2)CCC2CCC(C(=O)NC(c3ccccc3)c3ccccc3)N2C1=O

stdout:
1: 57; 2: 38.6

----------
Test system: 323965-272-R-J2-PDC complex spheroid growth, % test/control
Assay: Anticancer human tumor 323965-272-R-J2-PDC cell line growth inhibition [Asc]
Conditions: second compound 0.3 µM; first compound 0.316 µM; hits give low values
Assignment: determine reported viability, T/C for the given compounds.

Worked cases, answers included:
[
  {
    "compound": "C#Cc1c(F)ccc2cc(O)cc(-c3ncc4c(N5CC6CCC(C5)N6)nc(OCC56CCCN5CC(F)C6)nc4c3F)c12 (centres undefined) + CCN1C(C(=O)NC23CCC(C(=O)O)(CC2)CC3)C(c2cccc(Cl)c2F)C2(C(=O)Nc3cc(Cl)ccc32)C12CCCCC2",
    "viability, T/C": "112%"
  },
  {
    "compound": "C=CC(=O)N1CCN(c2nc(=O)n(-c3c(C)ccnc3C(C)C)c3nc(-c4c(O)cccc4F)c(F)cc23)C(C)C1 (centres undefined) + CCN1C(C(=O)NC23CCC(C(=O)O)(CC2)CC3)C(c2cccc(Cl)c2F)C2(C(=O)Nc3cc(Cl)ccc32)C12CCCCC2",
    "viability, T/C": "65.6%"
  },
  {
    "compound": "O=C(c1cc(Cc2n[nH]c(=O)c3ccccc23)ccc1F)N1CCN(C(=O)C2CC2)CC1 + CCN1C(C(=O)NC23CCC(C(=O)O)(CC2)CC3)C(c2cccc(Cl)c2F)C2(C(=O)Nc3cc(Cl)ccc32)C12CCCCC2",
    "viability, T/C": "117%"
  }
]

Proceed to the following item.
stdin: Field request: viability, T/C | item: C=C(F)C(=O)N1CCN(c2nc(OCC3CCCN3C)nc3c2CCN(c2cccc4cccc(Cl)c24)C3)CC1CC#N (centres undefined) + CCN1C(C(=O)NC23CCC(C(=O)O)(CC2)CC3)C(c2cccc(Cl)c2F)C2(C(=O)Nc3cc(Cl)ccc32)C12CCCCC2
stdout: 65%

----------
Test system: 323965-272-R-J2-PDC complex spheroid growth, % test/control
Experiment: Anticancer human tumor 323965-272-R-J2-PDC cell line growth inhibition [Asc];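 also: compound exposure lasted 7 days starting three days after spheroid seeding; 100% = DMSO vehicle control wells with viability set relative to vehicle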
Details: second compound 0.0949 µM; first compound 0.00316 µM; hits give low values
Assignment: determine reported viability, T/C for the given molecules.
One number for each entry, in %.

[
  {
    "molecule": "Cn1ncnc1[C@H]1c2n[nH]c(=O)c3cc(F)cc(c23)N[C@@H]1c1ccc(F)cc1 + CCN1C(C(=O)NC23CCC(C(=O)O)(CC2)CC3)C(c2cccc(Cl)c2F)C2(C(=O)Nc3cc(Cl)ccc32)C12CCCCC2",
    "endpointLabel": "viability, T/C",
    "reportedValue": 104
  }
]

Take each entry in turn and give its viability, T/C.
1. O=C(c1ccc(F)c(F)c1Nc1ccc(I)cc1F)N1CC(O)([C@@H]2CCCCN2)C1 + CCN1C(C(=O)NC23CCC(C(=O)O)(CC2)CC3)C(c2cccc(Cl)c2F)C2(C(=O)Nc3cc(Cl)ccc32)C12CCCCC2
2. NC1CCC(NC2CC2c2ccccc2)CC1 (stereo unspecified) + CCN1C(C(=O)NC23CCC(C(=O)O)(CC2)CC3)C(c2cccc(Cl)c2F)C2(C(=O)Nc3cc(Cl)ccc32)C12CCCCC2

stdout:
1. 103
2. 104

----------
System: 323965-272-R-J2-PDC complex spheroid growth, % test/control
Assay: Anticancer human tumor 323965-272-R-J2-PDC cell line growth inhibition [Asc];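 also: compound exposure lasted 7 days starting three days after spheroid seeding; 100% = DMSO vehicle control wells with viability set relative to vehicle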
Settings: second compound 0.316 µM; first compound 0.0949 µM; hits give low values
endpointLabel: viability, T/C (%)
Numbers only, in %.

Take each entry in turn and give its viability, T/C.
1. Cc1nc(N2CCC3(CC2)COC(C)C3N)c(CO)nc1Sc1ccnc(N)c1Cl (stereo not drawn) + CNC(C)C(=O)NC1CN(S(=O)(=O)c2cccc(S(=O)(=O)N3CCC4CCC(C(=O)NC(c5ccccc5)c5ccccc5)N4C(=O)C(NC(=O)C(C)NC)C3)c2)CCC2CCC(C(=O)NC(c3ccccc3)c3ccccc3)N2C1=O
2. NC(=O)C(=Cn1cnc(-c2cc(C(F)(F)F)cc(C(F)(F)F)c2)n1)c1cncnc1 + CNC(C)C(=O)NC1CN(S(=O)(=O)c2cccc(S(=O)(=O)N3CCC4CCC(C(=O)NC(c5ccccc5)c5ccccc5)N4C(=O)C(NC(=O)C(C)NC)C3)c2)CCC2CCC(C(=O)NC(c3ccccc3)c3ccccc3)N2C1=O
3. CCN1C(C(=O)NC23CCC(C(=O)O)(CC2)CC3)C(c2cccc(Cl)c2F)C2(C(=O)Nc3cc(Cl)ccc32)C12CCCCC2 (stereo not drawn) + CNC(C)C(=O)NC1CN(S(=O)(=O)c2cccc(S(=O)(=O)N3CCC4CCC(C(=O)NC(c5ccccc5)c5ccccc5)N4C(=O)C(NC(=O)C(C)NC)C3)c2)CCC2CCC(C(=O)NC(c3ccccc3)c3ccccc3)N2C1=O

stdout:
1. 86.7
2. 77.1
3. 94.8

----------
Test system: 323965-272-R-J2-PDC complex spheroid growth, % test/control
Assay: Anticancer human tumor 323965-272-R-J2-PDC cell line growth inhibition [Asc];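 also: compound exposure lasted 7 days starting three days after spheroid seeding; 100% = DMSO vehicle control wells with viability set relative to vehicle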
Conditions: second compound 0.1 µM; first compound 0.1 µM; hits give low values
endpointLabel: viability, T/C (%)
Answers are plain numbers, in %.

[
  {
    "compound": "COc1c(OCCCN2CCOCC2)ccc2c3n(c(=NC(=O)c4cnc(N)nc4)nc12)CCN3 + CNC(C)C(=O)NC1CN(S(=O)(=O)c2cccc(S(=O)(=O)N3CCC4CCC(C(=O)NC(c5ccccc5)c5ccccc5)N4C(=O)C(NC(=O)C(C)NC)C3)c2)CCC2CCC(C(=O)NC(c3ccccc3)c3ccccc3)N2C1=O",
    "scaleUnit": "%",
    "viability, T/C": 49.3
  }
]

Take each entry in turn and give its viability, T/C.
1. Cn1ncnc1[C@H]1c2n[nH]c(=O)c3cc(F)cc(c23)N[C@@H]1c1ccc(F)cc1 + Cc1c(S(C)(=O)=O)c(-c2cc(F)cc(N3CCN(c4ccc(NS(=O)(=O)c5ccc(NC(CCN6CCC(C(=O)OCCCP(=O)(O)O)CC6)CSc6ccccc6)c(S(=O)(=O)C(F)(F)F)c5)cc4)CC3)c2)c(-c2ccc(Cl)cc2)n1C(C)C
2. NC1CCC(NC2CC2c2ccccc2)CC1 (centres undefined) + Cc1c(S(C)(=O)=O)c(-c2cc(F)cc(N3CCN(c4ccc(NS(=O)(=O)c5ccc(NC(CCN6CCC(C(=O)OCCCP(=O)(O)O)CC6)CSc6ccccc6)c(S(=O)(=O)C(F)(F)F)c5)cc4)CC3)c2)c(-c2ccc(Cl)cc2)n1C(C)C
3. Cn1ncnc1[C@H]1c2n[nH]c(=O)c3cc(F)cc(c23)N[C@@H]1c1ccc(F)cc1 + CNC(C)C(=O)NC1CN(S(=O)(=O)c2cccc(S(=O)(=O)N3CCC4CCC(C(=O)NC(c5ccccc5)c5ccccc5)N4C(=O)C(NC(=O)C(C)NC)C3)c2)CCC2CCC(C(=O)NC(c3ccccc3)c3ccccc3)N2C1=O

stdout:
1. 92.7
2. 99
3. 91.7

----------
Assignment: determine reported viability, T/C for the given compounds.
Test system: 323965-272-R-J2-PDC complex spheroid growth, % test/control
Assay: Anticancer human tumor 323965-272-R-J2-PDC cell line growth inhibition [Asc];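 also: compound exposure lasted 7 days starting three days after spheroid seeding; 100% = DMSO vehicle control wells with viability set relative to vehicle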
Conditions: second compound 0.00316 µM; first compound 0.1 µM; hits give low values
One number for each entry, in %.

Take each entry in turn and give its viability, T/C.
1. COc1c(OCCCN2CCOCC2)ccc2c3n(c(=NC(=O)c4cnc(N)nc4)nc12)CCN3 + CNC(C)C(=O)NC1CN(S(=O)(=O)c2cccc(S(=O)(=O)N3CCC4CCC(C(=O)NC(c5ccccc5)c5ccccc5)N4C(=O)C(NC(=O)C(C)NC)C3)c2)CCC2CCC(C(=O)NC(c3ccccc3)c3ccccc3)N2C1=O
2. C#Cc1c(F)ccc2cc(O)cc(-c3ncc4c(N5CC6CCC(C5)N6)nc(OCC56CCCN5CC(F)C6)nc4c3F)c12 (centres undefined) + CNC(C)C(=O)NC1CN(S(=O)(=O)c2cccc(S(=O)(=O)N3CCC4CCC(C(=O)NC(c5ccccc5)c5ccccc5)N4C(=O)C(NC(=O)C(C)NC)C3)c2)CCC2CCC(C(=O)NC(c3ccccc3)c3ccccc3)N2C1=O
3. O=C(c1ccc(F)c(F)c1Nc1ccc(I)cc1F)N1CC(O)([C@@H]2CCCCN2)C1 + CNC(C)C(=O)NC1CN(S(=O)(=O)c2cccc(S(=O)(=O)N3CCC4CCC(C(=O)NC(c5ccccc5)c5ccccc5)N4C(=O)C(NC(=O)C(C)NC)C3)c2)CCC2CCC(C(=O)NC(c3ccccc3)c3ccccc3)N2C1=O
4. C=CC(=O)N1CCN(c2nc(=O)n(-c3c(C)ccnc3C(C)C)c3nc(-c4c(O)cccc4F)c(F)cc23)C(C)C1 (centres undefined) + CNC(C)C(=O)NC1CN(S(=O)(=O)c2cccc(S(=O)(=O)N3CCC4CCC(C(=O)NC(c5ccccc5)c5ccccc5)N4C(=O)C(NC(=O)C(C)NC)C3)c2)CCC2CCC(C(=O)NC(c3ccccc3)c3ccccc3)N2C1=O
5. C=C(F)C(=O)N1CCN(c2nc(OCC3CCCN3C)nc3c2CCN(c2cccc4cccc(Cl)c24)C3)CC1CC#N (centres undefined) + CNC(C)C(=O)NC1CN(S(=O)(=O)c2cccc(S(=O)(=O)N3CCC4CCC(C(=O)NC(c5ccccc5)c5ccccc5)N4C(=O)C(NC(=O)C(C)NC)C3)c2)CCC2CCC(C(=O)NC(c3ccccc3)c3ccccc3)N2C1=O
6. Cn1ncnc1[C@H]1c2n[nH]c(=O)c3cc(F)cc(c23)N[C@@H]1c1ccc(F)cc1 + CNC(C)C(=O)NC1CN(S(=O)(=O)c2cccc(S(=O)(=O)N3CCC4CCC(C(=O)NC(c5ccccc5)c5ccccc5)N4C(=O)C(NC(=O)C(C)NC)C3)c2)CCC2CCC(C(=O)NC(c3ccccc3)c3ccccc3)N2C1=O
7. CCN1CCN(Cc2ccc(Nc3ncc(F)c(-c4cc(F)c5nc(C)n(C(C)C)c5c4)n3)nc2)CC1 + CNC(C)C(=O)NC1CN(S(=O)(=O)c2cccc(S(=O)(=O)N3CCC4CCC(C(=O)NC(c5ccccc5)c5ccccc5)N4C(=O)C(NC(=O)C(C)NC)C3)c2)CCC2CCC(C(=O)NC(c3ccccc3)c3ccccc3)N2C1=O

stdout:
1. 54.6
2. 92.7
3. 50.1
4. 59.1
5. 48.5
6. 47.7
7. 83.6

Take each entry in turn and give its viability, T/C.
1. O=C(c1cc(Cc2n[nH]c(=O)c3ccccc23)ccc1F)N1CCN(C(=O)C2CC2)CC1 + CNC(C)C(=O)NC1CN(S(=O)(=O)c2cccc(S(=O)(=O)N3CCC4CCC(C(=O)NC(c5ccccc5)c5ccccc5)N4C(=O)C(NC(=O)C(C)NC)C3)c2)CCC2CCC(C(=O)NC(c3ccccc3)c3ccccc3)N2C1=O
2. NC1CCC(NC2CC2c2ccccc2)CC1 (centres undefined) + CNC(C)C(=O)NC1CN(S(=O)(=O)c2cccc(S(=O)(=O)N3CCC4CCC(C(=O)NC(c5ccccc5)c5ccccc5)N4C(=O)C(NC(=O)C(C)NC)C3)c2)CCC2CCC(C(=O)NC(c3ccccc3)c3ccccc3)N2C1=O

stdout:
45.3
94.2
